test system: Digitaria sanguinalis (DIGSA); test: Post-emergence efficacy, Method A; format: in vivo; conditions: Digitaria sanguinalis, post-emergence, 312 h; Application rate 500 g/Ha; evaluated after 13 days; 100=total damage to plant, 0=no damage to plant; read-out: Control of weed species after post-emergence application, DIGSA
Rule: condition met for pest or weed control at 500 g/ha not less than 70%, condition not met for anything less.

Solved entries:
• CCOC(=O)CC[n+]1ccc(-c2ncccn2)cn1 = condition not met
• O=C(O)CC[n+]1ccc(-c2cncc(C(F)(F)F)n2)cn1 = condition not met
• CCOP(=O)(O)CC[n+]1ccc(-c2ncccn2)cn1 = condition not met
• COC(=O)c1cnc(-c2cc[n+](CCS(=O)(=O)[O-])nc2)nc1 = condition not met
• O=S(=O)([O-])CC[n+]1ccc(-c2cnc(C(F)(F)F)cn2)cn1 = condition not met
• CC(C)(C[n+]1ccc(-c2ncccn2)cn1)S(=O)(=O)[O-] = condition met
• O=S(=O)([O-])CC[n+]1ccc(-c2ncccc2Cl)cn1 = condition not met
• COc1cc(OC)nc(-c2cc[n+](CCS(=O)(=O)[O-])nc2)n1 = condition met
• COc1cnc(-c2cc[n+](CCS(=O)(=O)[O-])nc2)nc1 = condition met
• Cc1cnc(-c2cc[n+](CCS(=O)(=O)[O-])nc2)c(C)c1 = condition not met

Input line: Does pest or weed control at 500 g/ha meet or surpass 70% for `Cc1nc(-c2cc[n+](CCS(=O)(=O)[O-])nc2)ncc1Cl` ?
Output line: condition not met

Input line: Does pest or weed control at 500 g/ha meet or surpass 70% for `O=S(=O)([O-])CC[n+]1ccc(-c2ncc(F)cn2)cn1` ?
Output line: condition not met

Input line: Does pest or weed control at 500 g/ha meet or surpass 70% for `O=S(=O)([O-])CC[n+]1ccc(-c2ncccc2C(F)(F)F)cn1` ?
Output line: condition not met

Input line: Does pest or weed control at 500 g/ha meet or surpass 70% for `COc1cnc(-c2cc[n+](CCCS(=O)(=O)[O-])nc2)cn1` ?
Output line: condition not met
